target_desc: HDAC6 (Homo sapiens, UniProt Q9UBN7)
Sequence (Q9UBN7 whole entry): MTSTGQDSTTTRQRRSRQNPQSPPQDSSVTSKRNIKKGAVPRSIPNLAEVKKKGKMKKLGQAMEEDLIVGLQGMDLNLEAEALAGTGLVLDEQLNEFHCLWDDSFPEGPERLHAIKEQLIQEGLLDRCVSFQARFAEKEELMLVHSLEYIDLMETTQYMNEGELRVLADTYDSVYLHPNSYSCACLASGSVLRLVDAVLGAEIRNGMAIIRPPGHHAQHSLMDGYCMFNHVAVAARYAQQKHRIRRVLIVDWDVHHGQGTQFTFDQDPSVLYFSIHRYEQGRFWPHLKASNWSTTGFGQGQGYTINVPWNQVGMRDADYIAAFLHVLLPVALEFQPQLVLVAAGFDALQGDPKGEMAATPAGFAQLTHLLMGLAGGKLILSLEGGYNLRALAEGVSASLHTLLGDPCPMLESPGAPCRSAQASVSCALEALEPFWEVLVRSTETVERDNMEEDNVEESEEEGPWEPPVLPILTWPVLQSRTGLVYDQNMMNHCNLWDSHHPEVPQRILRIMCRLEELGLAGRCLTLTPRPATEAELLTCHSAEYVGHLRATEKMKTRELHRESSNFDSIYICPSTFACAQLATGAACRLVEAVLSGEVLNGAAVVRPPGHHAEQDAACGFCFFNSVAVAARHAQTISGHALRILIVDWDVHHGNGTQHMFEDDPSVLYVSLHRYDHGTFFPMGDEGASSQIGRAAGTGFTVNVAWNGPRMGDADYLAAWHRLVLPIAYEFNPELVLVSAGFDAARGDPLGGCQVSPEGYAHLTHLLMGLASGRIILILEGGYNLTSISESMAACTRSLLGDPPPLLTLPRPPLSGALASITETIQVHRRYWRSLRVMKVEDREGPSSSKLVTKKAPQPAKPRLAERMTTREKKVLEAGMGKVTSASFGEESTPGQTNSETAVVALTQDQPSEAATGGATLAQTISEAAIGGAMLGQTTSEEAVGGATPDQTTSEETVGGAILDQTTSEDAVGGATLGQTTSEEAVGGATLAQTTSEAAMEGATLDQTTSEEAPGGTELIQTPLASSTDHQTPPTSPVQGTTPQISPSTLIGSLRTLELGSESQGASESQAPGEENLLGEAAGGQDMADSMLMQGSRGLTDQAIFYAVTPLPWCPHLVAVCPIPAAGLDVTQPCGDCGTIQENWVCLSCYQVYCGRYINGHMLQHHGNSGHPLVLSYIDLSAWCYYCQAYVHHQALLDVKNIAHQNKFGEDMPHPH
experiment_summary: HDAC6 inhibition, modified Fluor-de-Lys assay
Format: biochemical
condition_details: 3 h pre-incubation, […] enzyme, […] substrate BML-KI104; read-out: HDAC-6 IC50
Protocol: Human HDAC Enzyme Inhibitor FLUOR-DE-LYS Assay Materials The histone deacetylase activities of HDAC1, HDAC2, HDAC3, HDAC6, and HDAC8 were measured in modified Fluor-de-Lys assays in 384-well format. In this assay, HDAC enzymes are initially incubated with an ε-acetyl (or -trifluoroacetyl)-L-lysine-containing substrate with a C-terminal amide having aminomethylcoumarin as the amine component. […] The released AMC is then detected by its fluorescence. […]
recorded_endpoint: IC50 (nM)
Numeric only. Scale: nM

CCC(=O)CCCCCC1NC(=O)C2CC2N2CCC(CCCCCn3c(=O)ccc4cc(ccc43)-c3cnc1o3)CC2 (centres unmarked)	858

Read the next record carefully.
Prompt: Return IC50 for the following compound: CCC(=O)CCCCC[C@@H]1NC(=O)[C@H]2CC23CCN(CCCCCCCCn2ccc4cc(c(OC)cc4c2=O)-c2cnc1[nH]2)CC3
Completion: 218
